biological target: Human DYRK1B (Homo sapiens, UniProt Q9Y463); construct: purchased Invitrogen PR8350B (former PV4649); assay: DYRK1B Kinase TR-FRET (IMAP-Tb) Assay; type: biochemical; settings: TR-FRET (IMAP-Tb); ATP 70 μM; 37° C., 60 minutes; average of multiple runs; read-out: Enzyme IC50 (μM) DYRK1B
Sequence (Q9Y463 whole entry): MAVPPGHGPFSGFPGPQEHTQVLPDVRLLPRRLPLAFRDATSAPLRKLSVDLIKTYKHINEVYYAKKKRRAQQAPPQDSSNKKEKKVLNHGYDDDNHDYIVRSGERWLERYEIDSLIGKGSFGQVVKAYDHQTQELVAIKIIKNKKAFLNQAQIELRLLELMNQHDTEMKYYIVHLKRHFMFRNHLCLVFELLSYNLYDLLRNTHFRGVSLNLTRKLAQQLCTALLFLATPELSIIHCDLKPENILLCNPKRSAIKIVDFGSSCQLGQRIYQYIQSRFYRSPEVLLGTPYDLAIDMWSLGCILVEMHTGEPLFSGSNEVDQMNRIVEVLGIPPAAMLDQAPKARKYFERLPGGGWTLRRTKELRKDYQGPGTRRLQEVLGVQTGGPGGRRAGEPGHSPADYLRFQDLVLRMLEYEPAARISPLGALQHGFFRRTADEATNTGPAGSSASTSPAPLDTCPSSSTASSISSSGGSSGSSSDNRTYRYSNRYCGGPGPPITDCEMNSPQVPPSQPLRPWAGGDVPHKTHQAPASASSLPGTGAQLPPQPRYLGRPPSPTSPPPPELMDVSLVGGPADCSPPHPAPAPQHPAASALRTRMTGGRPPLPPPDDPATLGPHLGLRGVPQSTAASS
Structures can show the parent of a compound that is named as a salt.
Listed molecules paired with reported IC50
Please reply with the bare figure in µM and do not write the unit itself.

{"columns": ["MOLECULE", "VALUE KIND", "RECORDED VALUE"],
 "data": [
  ["COc1ccc2cc(C(=O)Nc3cc(C(=O)NCc4ccccc4)ccc3Cl)c(=O)[nH]c2n1", "IC50", 0.079],
  ["COc1cc2[nH]c(=O)c(C(=O)Nc3cc(C(=O)NC(CCN)c4ccsc4)ccc3C)cc2cn1 (stereo not shown)", "IC50", 0.023]
]}

Briefly, IC50 measured for COc1cc2[nH]c(=O)c(C(=O)Nc3cc(C(=O)NC(CN)c4cccc(Cl)c4)ccc3Cl)cc2cn1 (stereo not shown) [Example 51, hydrochloride] : 0.119

Briefly, IC50 measured for COc1ccc2cc(C(=O)Nc3cc(C(=O)NCc4ccccc4)ccc3C)c(=O)[nH]c2n1 : 0.69
